# TEST_TARGET: hGcgR (Homo sapiens)
# Sequence (P47871 26-477): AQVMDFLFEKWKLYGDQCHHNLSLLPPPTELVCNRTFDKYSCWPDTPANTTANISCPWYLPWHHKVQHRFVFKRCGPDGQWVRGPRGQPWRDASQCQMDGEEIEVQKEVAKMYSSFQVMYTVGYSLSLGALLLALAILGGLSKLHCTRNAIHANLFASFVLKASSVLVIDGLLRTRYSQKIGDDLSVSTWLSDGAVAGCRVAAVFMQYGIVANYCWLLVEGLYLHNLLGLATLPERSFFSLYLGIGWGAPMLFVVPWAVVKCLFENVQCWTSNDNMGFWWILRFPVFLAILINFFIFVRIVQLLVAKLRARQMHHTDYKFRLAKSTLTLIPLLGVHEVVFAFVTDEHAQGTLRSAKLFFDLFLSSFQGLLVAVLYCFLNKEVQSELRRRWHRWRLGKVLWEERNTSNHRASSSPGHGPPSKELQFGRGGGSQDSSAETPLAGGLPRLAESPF
# TEST_DESCRIPTION: Functional cAMP activation in the presence of 0.1% casein (no HSA);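 also: intracellular cAMP rise after 30 min at 37 °C, read by HTRF against a cAMP standard curve, scaled from buffer only (0%) to maximal control ligand response (100%)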
# Format: cell-based
# STUDY_CONDITIONS: in the presence of 0.1% casein (no HSA); geometric mean; read-out: Relative cAMP EC50, hGcgR
Starred links: 1 amine or outer side, 2 acyl side, 3 side chain; linkers in the order of their positions; H or OH if unused. Non-standard residues stand in square brackets, D forms with d. Groups on a side chain read outwards from the residue. *: point of attachment. C20 diacid = O=C(O)CCCCCCCCCCCCCCCCCCC(=O)*; C18 diacid = O=C(O)CCCCCCCCCCCCCCCCC(=O)*; γGlu = O=C(O)[C@H](CCC(=O)[*:2])N[*:1]; αMe4Pal = C[C@](N)(Cc1ccncc1)C(=O)O; αMeY = C[C@](N)(Cc1ccc(O)cc1)C(=O)O; 4Pal = N[C@@H](Cc1ccncc1)C(=O)O; αMeL = CC(C)C[C@](C)(N)C(=O)O; Orn = NCCC[C@H](N)C(=O)O; Dap = NC[C@H](N)C(=O)O; AEEA = NCCOCCOCC(=O)O; Aib = CC(C)(N)C(=O)O
Please go through the items and note down their EC50.
# value in nM; strip the unit string

Quick one: EC50 for H-Y[Aib]QGTFTSDYSK[αMeL]LDKK([AEEA-γGlu-C20 diacid])AQQAFIEYLLAGGPSSGEPPPSGE-NH2 [Example 344] ? 9.05

Try H-Y[Aib]QGTFTSD[4Pal]S[Orn][αMeL]LD[Orn]K([γGlu-γGlu-C18 diacid])AQ[αMe4Pal]EFIE[αMeY]LLEGGPSSGAPPPSGSEE-NH2 [Example 976] next. 8.75

Input H-Y[Aib]QGTFTSDFS[Orn][αMeL]LDKK([AEEA-γGlu-C18 diacid])AQ[Aib]AFIEYLLAGGPSSGAPPPSGSQ-OH [Example 88] 7.48

Same question for H-Y[Aib]QGTFTSD[4Pal]SK[αMeL]LDKK([AEEA-γGlu-C18 diacid])AQ[Aib]AFIEYLIEGGPSSGAPPPSGS-NH2 [Example 908] please. 8.11

Same lookup for H-Y[Aib]QGTFTSDYSI[αMeL]LDKQAAK([AEEA-AEEA-γGlu-C20 diacid])AFVEWLLAGGPSSGEPPPSEG-NH2 [Example 305] , please. 6.73

Thanks! And H-Y[Aib]QGTFTSDFS[Orn][αMeL]LDKK([AEEA-γGlu-C18 diacid])AQ[Aib]AFIEYLLAGGPSSGAPPPSGE-NH2 [Example 86] ? 7.23

Request: H-Y[Aib]QGTFTSD[4Pal]SR[αMeL]LDKK([AEEA-γGlu-C18 diacid])AQ[Aib]AFIE[αMeY]LLEGGPSSGAPPPSGS-NH2 [Example 909] 6.82

Further, for H-Y[Aib]QGTFTSD[4Pal]SQ[αMeL]LDKK([dE-γGlu-C18 diacid])AQ[αMe4Pal]AFIEYLIAGGPSSGAPPPSGE-NH2 [Example 1085] ? 11.6

Likewise for H-Y[Aib]QGTFTSD[4Pal]S[Orn][αMeL]LDKK([AEEA-γGlu-C18 diacid])AQ[Aib]AFIEYLLE[dA]GPSS[Aib]APPPSGT-NH2 [Example 275] ? 7.8

Same lookup for H-Y[Aib]QGTFTSDFS[Dap][αMeL]LDKK([AEEA-γGlu-C18 diacid])AQ[Aib]AFIEYLLE[Aib]GPSSGAPPPSGS-NH2 [Example 134] , please. 7.28

Subsequent entry: H-Y[Aib]QGTFTSD[4Pal]SQ[αMeL]LD[Orn]K([dE-γGlu-C18 diacid])AQ[αMe4Pal]AFIQ[αMeY]LIA[Aib]GPSSGEPPPSGGGE-NH2 [Example 1130] 13.3

Record: H-Y[Aib]QGTFTSD[4Pal]SK[αMeL]LDKK([γGlu-γGlu-C18 diacid])AQ[Aib]AFIEYLIE[Aib]GPSSGAPPPSGSE-NH2 [Example 904] 9.88

* * *

# TEST_TARGET: hGLP-1R (Homo sapiens, UniProt P43220)
# Sequence (P43220 24-463): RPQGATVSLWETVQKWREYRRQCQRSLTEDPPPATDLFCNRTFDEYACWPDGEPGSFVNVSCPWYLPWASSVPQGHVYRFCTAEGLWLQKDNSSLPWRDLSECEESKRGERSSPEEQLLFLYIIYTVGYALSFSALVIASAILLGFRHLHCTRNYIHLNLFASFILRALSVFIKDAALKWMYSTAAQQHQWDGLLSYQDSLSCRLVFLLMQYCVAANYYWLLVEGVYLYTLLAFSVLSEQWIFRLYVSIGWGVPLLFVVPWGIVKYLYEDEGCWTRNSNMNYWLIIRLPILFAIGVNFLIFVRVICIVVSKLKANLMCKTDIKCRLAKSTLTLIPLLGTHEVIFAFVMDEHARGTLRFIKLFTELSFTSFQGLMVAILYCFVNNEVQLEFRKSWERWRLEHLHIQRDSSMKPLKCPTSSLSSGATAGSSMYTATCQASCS
# TEST_DESCRIPTION: Functional cAMP activation in the presence of 0.1% casein (no HSA);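 as to Relative cAMP EC50, hGLP-1R: intracellular cAMP rise after 30 min at 37 °C read by HTRF, normalized between buffer only (0%) and maximal control ligand (100%), four-parameter variable-slope fit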
# Type: cell-based
# STUDY_CONDITIONS: in the presence of 0.1% casein (no HSA); geometric mean; read-out: Relative cAMP EC50, hGLP-1R
Starred links: 1 amine or outer side, 2 acyl side, 3 side chain; linkers in the order of their positions; H or OH if unused. Non-standard residues stand in square brackets, D forms with d. Groups on a side chain read outwards from the residue. No end group written: not given here. *: point of attachment. C20 diacid = O=C(O)CCCCCCCCCCCCCCCCCCC(=O)*; C18 diacid = O=C(O)CCCCCCCCCCCCCCCCC(=O)*; Phe(4-CN) = N#Cc1ccc(C[C@H](N)C(=O)O)cc1; αMePhe(2-F) = C[C@](N)(Cc1ccccc1F)C(=O)O; γGlu = O=C(O)[C@H](CCC(=O)[*:2])N[*:1]; αMe4Pal = C[C@](N)(Cc1ccncc1)C(=O)O; αMeY = C[C@](N)(Cc1ccc(O)cc1)C(=O)O; Hyp = O=C(O)[C@@H]1C[C@@H](O)CN1; 4Pal = N[C@@H](Cc1ccncc1)C(=O)O; αMeL = CC(C)C[C@](C)(N)C(=O)O; αMeS = C[C@](N)(CO)C(=O)O; Orn = NCCC[C@H](N)C(=O)O; AEEA = NCCOCCOCC(=O)O; Aib = CC(C)(N)C(=O)O
PARAMETER: EC50 (nM)
Answer format: numeric, nM implied, no suffix.

Which EC50 is listed for H-Y[Aib]QGTFTSDFSK[αMeL]LDKK([AEEA-γGlu-C20 diacid])AQ[Aib]AFIEYLLAGGPSSGAPPPGGE-NH2 [Example 15] ? 1.77

Also Y[Aib]QGTFTSD[4Pal]SK[αMeL]LDKK([AEEA-γGlu-C18 diacid])AQ[Aib]AFIEYLIA[Aib]GESSGEPPPSGE-NH2 [Example 286] , if possible. 3.45

// query: H-Y[Aib]QGTFTSD[4Pal]SQ[αMeL]LDKK([AEEA-γGlu-C18 diacid])AQ[αMe4Pal]AFIEYLIE[Aib]GPSSGAPPPSG[4Pal]-NH2 [Example 835] 2.84

Next record, please: H-Y[Aib]QGTFTSD[4Pal]SQ[αMeL]LD[Orn]K([γGlu-γGlu-C18 diacid])AQ[αMe4Pal]AFIEYLIE[dA]GPSSGAPPPSGS-NH2 [Example 1017] 1.16

Request: H-Y[Aib]QGTFTSDFS[Orn][αMeL]LDKK([AEEA-γGlu-C18 diacid])AQ[Aib]AFIEYLLEGG[Hyp]SSGAPPPGGS-NH2 [Example 234] 4.72

Try this substance next: H-Y[Aib]QGTFTSDFS[Orn][αMeL]LDKK([AEEA-AEEA-γGlu-C18 diacid])AQ[Aib]AFIEYLLE[Aib]GHSSGAPPPSGT-NH2 [Example 182] 4.8

What about this substance? H-Y[Aib]QGT[αMePhe(2-F)]TSD[Phe(4-CN)]SKLLDKIAQK([AEEA-γGlu-C20 diacid])AFIEYLIEGGPSSGEPPPSGS-NH2 [Example 364] 1.1

Moving on to H-Y[Aib]QGTFTSDFS[Orn][αMeL]LDKK([γGlu-γGlu-C18 diacid])AQ[Aib]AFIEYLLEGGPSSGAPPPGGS-NH2 [Example 198] 4.36

Another substance to look at: H-Y[Aib]QGTFTSDFS[Orn][αMeL]LDKK([AEEA-γGlu-C20 diacid])AQ[Aib]AFIEYLLE[Aib]GPSSGAPPPSEG-NH2 [Example 61] 2.05

How about Y[Aib]QGT[αMePhe(2-F)]TSD[4Pal][αMeS]I[αMeL]LD[Orn]K([γGlu-γGlu-C18 diacid])AQ[αMe4Pal]EFI[dE][αMeY]LIEGGPSSGAPPPSGE-NH2 [Example 1150] ? 0.278

What about H-Y[Aib]QGTFTSDFS[Orn][αMeL]LDKK([AEEA-γGlu-C18 diacid])AQ[αMe4Pal]AFIEYLIE[Aib]GESSGAPPPSGS-NH2 [Example 229] ? 1.58

Try this substance too: H-Y[Aib]QGTFTSDFS[Orn][αMeL]LDKK([AEEA-AEEA-γGlu-C20 diacid])AQ[Aib]AFIEYLLE[Aib]GPSSGAPPPSEG-NH2 [Example 71] 3.12

Could you do the same for Y[Aib]QGTFTSDFSK[αMeL]LDKK([AEEA-γGlu-C18 diacid])AQ[Aib]QFIEYLLAGGPSSGEPPPSEG-NH2 [Example 26] , please? 3.44

Also check H-Y[Aib]QGTFTSDFS[Orn][αMeL]LDKK([AEEA-γGlu-C18 diacid])AQ[Aib]AFIEYLLE[dA]GPSSGAPPPSGS-NH2 [Example 209] 1.78

Then what about the substance H-Y[Aib]QGTFTSD[4Pal]S[Orn][αMeL]LD[Orn]K([γGlu-γGlu-C18 diacid])AQ[αMe4Pal]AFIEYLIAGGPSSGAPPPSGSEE-NH2 [Example 1059] ? 4.61

Check H-Y[Aib]QGT[αMePhe(2-F)]TSD[Phe(4-CN)]SILLDKQAQK([AEEA-γGlu-C20 diacid])AFIQYLLEGGPSSGEPPPSEG-NH2 [Example 341] too. 1.62

The reported measurements were obtained from patent US20240270821A1.
